# System: KB-3-1
# TEST PROTOCOL: Cytotoxic Profiling of Annotated Libraries Using Quantitative High-Throughput Screening (AID 1296008); note: % is set by controls: 0 for no effect and ±100 for the full control effect; nearly all actives have a fitted effect of over 60% in size
# EXPERIMENTAL CONDITIONS: Five cell lines viability, CellTiter-Glo ATP luminescence, 48-72 h; hits give low values
# Procedure: Cell-based phenotypic screening is a commonly used approach to discover biological pathways, novel drug targets, chemical probes and high-quality hit-to-lead molecules. […] A pintool (Kalypsys) was used to transfer 23 nL of compound solution to the 1536-well assay plates. […] Plates were left at room temperature for 10 min before imaging the ATP-coupled luminescence using a ViewLux microplate imager (PerkinElmer, Waltham, MA).
Results filed as inconclusive are left out.
Catalogue of compounds with associated max response
PROPERTY NAME: max response (%)

| COMPOUND | UNIT TAG | TEST VALUE |
| --- | --- | --- |
| CC(O)C(=O)/C=C/C=C/C(=O)OC1C=C2COC(=O)C2(O)C2(C)CCCC(C)(C)C12 (stereo unspecified) | % | 4.29 |
| COc1cccc2c1c(O)c(C(=O)N(C)c1ccc(C(F)(F)F)cc1)c(=O)n2C | % | 0.95 |
| Cc1ccc(C)c(NC(=O)CNS(=O)(=O)c2ccc3[nH]c(=O)oc3c2)c1 | % | 8.68 |
| COc1cc(C)c(C(=O)OC2C(C)OC(OC3CCC(C)C4C3C=C(C)C3/C(C)=C\CC/C(C)=C/C5(C)C=C(C(=O)O)C(C)CC56OC(=O)/C(=C(\O)C34C)C6=O)C(O)C2O)c(OC)c1 (stereo unspecified) | % | -3.91 |
| CCOc1ccc(-c2cc(NC(=O)c3c(F)cccc3F)c(C(=O)O)s2)cc1 | % | -17.4 |
| CCOC(=O)C(CCc1ccccc1)NC1CCCN2CCCC(C(=O)O)N2C1=O (stereo unspecified) | % | 2.78 |
| COc1cc(/C=C/C(=O)O[C@H]2[C@H](O)[C@@H](CO)O[C@@]2(CO)O[C@H]2O[C@H](CO)[C@@H](O)[C@H](O)[C@H]2O)cc(OC)c1O | % | 3.15 |
| OC[C@H]1O[C@@H](Oc2cc(O)cc(-c3cc4ccc(O[C@@H]5O[C@H](CO)[C@@H](O)[C@H](O)[C@H]5O)cc4o3)c2)[C@H](O)[C@@H](O)[C@@H]1O | % | 0.0792 |
| C=C[C@H]1[C@H](O[C@@H]2O[C@H](CO)[C@@H](O)[C@H](O)[C@H]2O)OC=C(C(=O)OC)[C@H]1CCO | % | 5.52 |
| C/C(=C\C1CCC(C)C2CCC3(C)OC123)C(=O)O (stereo unspecified) | % | 8.09 |
| COc1c(C)c(OCC(O)C(C)(C)O)cc2c1CNC2=O (stereo unspecified) | % | 5.28 |
| C[C@@H]1O[C@@H](O[C@H]2[C@@H]3C=CO[C@@H](O[C@@H]4O[C@H](CO)[C@@H](O)[C@H](O)[C@H]4O)[C@@H]3[C@@]3(CO)O[C@@H]23)[C@H](O)[C@H](OC(=O)/C=C/c2ccc(O)c(O)c2)[C@H]1O | % | -0.915 |
| O=C(Nc1cc(-c2ccccc2)nn1-c1ccccc1F)c1ccc([N+](=O)[O-])cc1 | % | -2.53 |
| O=C(O)Cc1cn([C@@H]2OC[C@@H](O[C@@H]3O[C@H](CO)[C@@H](O)[C@H](O)[C@H]3O)[C@H](O)[C@H]2O[C@@H]2O[C@H](CO)[C@@H](O)[C@H](O)[C@H]2O)c2ccccc12 | % | 5.94 |
| O=C(OC[C@H]1O[C@@H](Oc2ccccc2COC(=O)C2(O)C=CCCC2O)[C@H](O)[C@@H](O)[C@@H]1O)c1ccccc1 (stereo partly specified) | % | 1.49 |
| O=C(/C=C/c1ccccc1)OC[C@H]1O[C@@H](OC(=O)c2cc(O)c(O)c(O)c2)[C@H](O)[C@@H](O)[C@@H]1O | % | 6.66 |
